QUANTITY_KIND: melting point (°C)

{"SMILES_INPUT": "Cc1c(O)cc(C(C)C)c2oc(-c3ccc([N+](=O)[O-])cc3)nc12", "MEASURED_VALUE": 188}
{"SMILES_INPUT": "Cc1c(O)cc(C(C)C)c2oc(-c3ccccc3)nc12", "MEASURED_VALUE": 164}
{"SMILES_INPUT": "COc1cc(-c2nc3c(C)c(O)cc(C(C)C)c3o2)ccc1O", "MEASURED_VALUE": 168}
{"SMILES_INPUT": "Cc1c(O)cc(C(C)C)c2oc(-c3ccccc3O)nc12", "MEASURED_VALUE": 172}
{"SMILES_INPUT": "Cc1c(O)cc(C(C)C)c2oc(-c3ccc(Br)cc3)nc12", "MEASURED_VALUE": 190}
{"SMILES_INPUT": "Cc1c(O)cc(C(C)C)c2oc(-c3cccs3)nc12", "MEASURED_VALUE": 152}
{"SMILES_INPUT": "COc1ccc(-c2nc3c(C)c(O)cc(C(C)C)c3o2)cc1", "MEASURED_VALUE": 178}
